Entries and their measured Percent Effect follow.
Target: AMP-activated protein kinase, AMPK (Homo sapiens) (UniProt P54646+O43741+P54619+Q9UGJ0+Q9Y478+Q13131+Q9UGI9)
Assay: AMP-dependent Kinase enzyme assay. An in vitro enzyme assay that detects ADP turnover that is directly proportional to AMPK activity. This uses naive AMPK that is activated during the assay with MK-8722
Type: functional
Parameters: scale not given: direction of the effect not stated beside the values
Conditions: 30 µM
Number in %, nothing else.

{"COMPOUND": "O=C(Cc1cccs1)NCc1ccnc(C2CCCOC2)n1 (stereo not given)", "UNIT": "%", "Percent Effect": 12.2}

Exercise: What does the record list as Percent Effect for O=C(NCc1ccc(-n2cncn2)nc1)c1cnccn1 ?
Solution: -5.91

Exercise: Which value of Percent Effect has been reported for CC(C)(C)CN(CCC#N)C(=O)c1cccc(CN2CCCC2)c1 in the records?
Solution: 7.06

Exercise: Can you share its Percent Effect? I mean this compound: COc1cc(CNC(=O)COC2CCCC2)ccc1O
Solution: 3.23

Exercise: So what does the record say about Percent Effect for Cc1nc(CNCC2CNc3ccnn3C2)cs1 (stereo not given) ?
Solution: -8.22

Exercise: // query Percent Effect value for entry Cc1ccc(-c2nc(C(=O)N(C)CC(=O)N3CCCC3)cs2)c(C)c1
Solution: 1.55

Exercise: Find the recorded Percent Effect belonging to CSc1ccc(OCCN2CCNC(=O)CC2)cc1 and report it.
Solution: 9.33

###

Percent Effect: recorded values
Target: AMP-activated protein kinase, AMPK (Homo sapiens) (UniProt P54646+O43741+P54619+Q9UGJ0+Q9Y478+Q13131+Q9UGI9)
Assay: AMP-dependent Kinase enzyme assay. An in vitro enzyme assay that detects ADP turnover that is directly proportional to AMPK activity. This uses naive AMPK that is activated during the assay with MK-8722
Type: functional
Design: scale not given: direction of the effect not stated beside the values
Conditions: 30 µM
Numeric answer only, unit % assumed.

{"COMPOUND": "O=C(c1ccncc1)N1CCCC(C2=Nc3ccccc3S(=O)(=O)N2)C1 (configuration not stated)", "UNIT": "%", "Percent Effect": 8.81}
{"COMPOUND": "CN(C)S(=O)(=O)N1CCOC(c2cccc(-c3cncnc3)n2)C1 (configuration not stated)", "UNIT": "%", "Percent Effect": 9.99}
{"COMPOUND": "Cc1ccc(Oc2cc(CN)ccn2)cc1C", "UNIT": "%", "Percent Effect": -98.1}
{"COMPOUND": "COc1cccnc1NC(=O)COC1CCCC1", "UNIT": "%", "Percent Effect": 8.7}
{"COMPOUND": "CN(CCc1ccccc1)Cc1c(C2CCNCC2)[nH]c2ncccc12", "UNIT": "%", "Percent Effect": 7.86}
{"COMPOUND": "COc1ccc(-n2cccn2)c(CN2CCOCC(CN(C)C)C2)c1 (configuration not stated)", "UNIT": "%", "Percent Effect": 1.67}

We next turn to a different compound, shown below.
Exercise: # query: Percent Effect of entry CCN(Cc1cnc(C)cn1)C1CCN(c2ccccc2)C1=O (configuration not stated)
Solution: -4.52

###

Molecular target: Tyrosyl-tRNA synthetase, putative (Trypanosoma cruzi (strain CL Brener))
Assay: Trypanosoma cruzi tyrosyl tRNA synthetase (TcYRS) SOP
Format: functional
Design: scale not given: direction of the effect not stated beside the values
Conditions: 30 µM
PROPERTY MEASURED: Percent Effect (%)
Respond numerically; units are % and should not be typed.

{"COMPOUND": "CS(=O)(=O)NCC1CCCN(C(=O)COCc2ccccc2)C1 (stereo not drawn)", "MEASURED RESULT": 20.5}
{"COMPOUND": "O=C1CO[C@@H]2CN(Cc3cccs3)C[C@H]2N1CC1CC1", "MEASURED RESULT": 17.9}
{"COMPOUND": "CCc1ncnc2c1CCN(Cc1ccc(OC)cc1)CC2", "MEASURED RESULT": -12.8}
{"COMPOUND": "COCCc1noc(CN2CCOC(Cn3nc(C)cc3C)C2)n1 (stereo not drawn)", "MEASURED RESULT": 18.8}

Exercise: Query (compound): O=C(CCOc1ccc(Cl)cc1)N1CCN(c2cnccn2)CC1 ; field requested: Percent Effect
Solution: 21.2

Exercise: Percent Effect lookup needed for CCCC(C)C(=O)N1CCC(n2cccc2C(=O)OC)CC1 (stereo not drawn) , thanks.
Solution: 9.41

Exercise: Reported Percent Effect for Cc1noc(Cl)c1CCC(=O)N1CCc2sccc2C1 : what is it?
Solution: 17.9

Exercise: What value of Percent Effect has been recorded for this entry: CCc1ccsc1C(=O)N1CCN(C(=O)CC(F)(F)F)CC1
Solution: 23.5

Exercise: Find the recorded Percent Effect belonging to Cc1ccc(NC(=O)C(C)N2CCCN(c3nccs3)CC2)c(C)c1 (stereo not drawn) and report it.
Solution: 6.02
